Data provenance is patent US20180057604A1.

target: T1, murine BACE1 ECD; assay: Octet, pH 5.0
T1 construct: analyte of the Octet assay (200 nM) and enzyme of the first short substrate assay
T1 sequence (single chain, as listed by the source limits assumed): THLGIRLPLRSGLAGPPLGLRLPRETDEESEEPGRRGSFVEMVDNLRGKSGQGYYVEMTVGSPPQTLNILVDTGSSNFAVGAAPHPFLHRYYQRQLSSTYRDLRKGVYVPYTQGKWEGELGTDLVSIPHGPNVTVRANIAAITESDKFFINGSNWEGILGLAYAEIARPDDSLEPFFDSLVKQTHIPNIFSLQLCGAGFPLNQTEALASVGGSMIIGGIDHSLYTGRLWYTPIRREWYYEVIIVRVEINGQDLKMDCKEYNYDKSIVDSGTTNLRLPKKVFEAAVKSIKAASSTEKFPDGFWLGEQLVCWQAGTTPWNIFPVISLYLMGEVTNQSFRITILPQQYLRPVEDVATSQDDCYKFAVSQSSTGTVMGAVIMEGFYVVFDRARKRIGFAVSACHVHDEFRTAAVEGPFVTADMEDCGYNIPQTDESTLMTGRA
Can you tell me Kd for the items I'm about to list?

// returns reported Kd for input 6310 (antibody, V domains shown, anti-BACE1 IgG) VH: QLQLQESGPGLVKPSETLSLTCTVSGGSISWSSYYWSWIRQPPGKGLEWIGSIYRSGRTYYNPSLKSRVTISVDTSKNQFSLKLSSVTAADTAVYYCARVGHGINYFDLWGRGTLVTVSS VL: EIVLTQSPATLSLSPGERATLSCRASQSVSSYLAWYQQKPGQAPRLLIYDASNRATGIPARFSGSGSGTDFTLTISSLEPEDFAVYYCQQSVTWPPRTFGGGTKVEIK
0.5 nM

// returns reported Kd for input 6314 (antibody, V domains shown, anti-BACE1 IgG) VH: QLQLQESGPGLVKPSETLSLTCTVSGGSISRGSYYWGWIRQPPGKGLEWIGMIYYSGSTWYNPSLKSRVTISVDTSKNQFSLKLSSVTAADTAVYYCARVGHGVSYFDLWGRGTLVTVSS VL: EIVLTQSPATLSLSPGERATLSCRASQSVSSYLAWYQQKPGQAPRLLIYDASNRATGIPARFSGSGSGTDFTLTISSLEPEDFAVYYCQQSIVWPPRTFGGGTKVEIK
< 0.26 nM

// returns reported Kd for input 6305 (antibody, V domains shown, anti-BACE1 IgG) VH: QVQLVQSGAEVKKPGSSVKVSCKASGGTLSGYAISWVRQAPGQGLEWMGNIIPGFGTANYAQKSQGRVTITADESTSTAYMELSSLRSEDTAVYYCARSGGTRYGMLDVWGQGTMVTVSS VL: EIVLTQSPATLSVSPGERATLSCRASQSVGSNLAWYQQKPGQAPRLLIYGASTRATGIPARFSGSGSGTEFTLTISSLQSEDFAVYYCQQSFVWPPRTFGGGTKVEIK
1.6 nM

// returns reported Kd for input 6303 (antibody, V domains shown, anti-BACE1 IgG) VH: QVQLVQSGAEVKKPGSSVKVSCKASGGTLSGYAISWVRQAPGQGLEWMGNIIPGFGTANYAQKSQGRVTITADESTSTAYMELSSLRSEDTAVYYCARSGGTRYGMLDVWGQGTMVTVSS VL: EIVMTQSPATLSVSPGERATLSCRASQSVSSNLAWYQQKPGQAPRLLIFGASTRATGIPARFSGSGSGTEFTLTISSLQSEDFAVYYCQQLLTWPPRTFGGGTKVEIK
< 0.32 nM

// returns reported Kd for input 6307 (antibody, V domains shown, anti-BACE1 IgG) VH: QLQLQESGPGLVKPSETLSLTCTVSGGSISWSSYYWSWIRQPPGKGLEWIGSIYRSGRTYYNPSLKGRVTISVDTSKNQFSLKLSSVTAADTAVYYCARVGHGINYFDLWGRGTLVTVSS VL: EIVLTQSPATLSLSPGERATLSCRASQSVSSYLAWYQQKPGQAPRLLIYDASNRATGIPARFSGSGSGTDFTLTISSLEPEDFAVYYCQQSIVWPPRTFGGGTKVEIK
< 0.17 nM
